# Tested on: C33A
# experiment: Primary qHTS to identify gynecologic anti-cancer compounds using libraries of approved drugs and bioactive compounds (AID 1345084); also: nearly all actives have a fitted effect of over 55% in size
# experimentalConditions: Gynecologic cancer cell panel viability, ATPlite luminescence, 48 h; series mostly up to 57.5 µM
Inconclusive results are not listed. Active and inactive are the calls of the source. Calls follow the shape of the dose curve; as a rule, active = well fitted cell-killing curve with a large enough effect; inconclusive = small, poorly fitted or top-dose-only effect, or effect the other way; inactive = flat fitted curve, though single readings scatter.
Classes used: active, inactive

{"compound": "C[C@]12CCC(=O)C=C1C=C[C@@H]1[C@@H]2CC[C@@]2(C)[C@H]1CC[C@@]21CCC(=O)O1", "assignedCategory": "inactive"}
{"compound": "CC(=O)Oc1ccc(C)cc1", "assignedCategory": "inactive"}
{"compound": "CC1CCc2c(N3CCC(O)CC3)c(F)cc3c(=O)c(C(=O)O)cn1c23 (stereo not given)", "assignedCategory": "inactive"}
{"compound": "Cc1ccc2c(Br)cc(Br)c(O)c2n1", "assignedCategory": "active"}
{"compound": "CC(=O)O[C@H]1C[C@@H]2CC[C@@H]3[C@H](CC[C@@]4(C)[C@H]3C[C@H]([N+]3(C)CCCCC3)[C@@H]4OC(C)=O)[C@@]2(C)C[C@@H]1N1CCCCC1", "assignedCategory": "inactive"}
{"compound": "CC(C)Cc1ccc(CC(=O)O)cc1", "assignedCategory": "inactive"}
{"compound": "CC[C@H](c1ccc(O)cc1)[C@@H](CC)c1ccc(O)cc1", "assignedCategory": "inactive"}
{"compound": "NC(=O)C1(N2CCCCC2)CCN(CCCC(=O)c2ccc(F)cc2)CC1", "assignedCategory": "inactive"}
{"compound": "CCCCNC(=O)NS(=O)(=O)c1ccc(N)cc1", "assignedCategory": "inactive"}
{"compound": "COc1cc(N)c(Cl)cc1C(=O)NC1CCN(Cc2ccccc2)CC1", "assignedCategory": "inactive"}
